The values you see were collected from ChEMBL document CHEMBL4507326.

molecular target: UniProt:P43250
Sequence (P43250 whole entry): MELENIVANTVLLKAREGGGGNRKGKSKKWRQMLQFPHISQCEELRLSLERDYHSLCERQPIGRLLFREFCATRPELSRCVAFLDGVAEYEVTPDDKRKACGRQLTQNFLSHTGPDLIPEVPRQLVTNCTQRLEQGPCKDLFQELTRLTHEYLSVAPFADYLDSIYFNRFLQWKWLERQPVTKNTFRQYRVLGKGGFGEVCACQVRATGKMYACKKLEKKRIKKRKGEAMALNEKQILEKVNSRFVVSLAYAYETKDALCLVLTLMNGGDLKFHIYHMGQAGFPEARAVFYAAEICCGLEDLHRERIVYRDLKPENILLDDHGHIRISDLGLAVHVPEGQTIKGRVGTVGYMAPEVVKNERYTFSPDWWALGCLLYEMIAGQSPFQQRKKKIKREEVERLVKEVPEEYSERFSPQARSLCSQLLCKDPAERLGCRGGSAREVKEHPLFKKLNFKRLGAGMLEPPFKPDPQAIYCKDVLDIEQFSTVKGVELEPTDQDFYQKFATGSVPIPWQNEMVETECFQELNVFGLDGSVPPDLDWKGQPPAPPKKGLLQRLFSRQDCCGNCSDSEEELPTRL
Attribute measured: pIC50
Scale: pIC50 equals -log10([C]), with [C] in mol/L.

Request: Which pIC50 value belongs to `CN1C(=O)[C@@H](N2CCc3c(nn(Cc4ccccc4)c3Br)C2=O)COc2ccccc21` ?
Response: 6.00

====

biological target: Bone morphogenetic protein receptor type-1B (Homo sapiens, UniProt O00238); assay: BMPR1B(BM1BLGF1) Takeda global kinase panel
Sequence (O00238 whole entry): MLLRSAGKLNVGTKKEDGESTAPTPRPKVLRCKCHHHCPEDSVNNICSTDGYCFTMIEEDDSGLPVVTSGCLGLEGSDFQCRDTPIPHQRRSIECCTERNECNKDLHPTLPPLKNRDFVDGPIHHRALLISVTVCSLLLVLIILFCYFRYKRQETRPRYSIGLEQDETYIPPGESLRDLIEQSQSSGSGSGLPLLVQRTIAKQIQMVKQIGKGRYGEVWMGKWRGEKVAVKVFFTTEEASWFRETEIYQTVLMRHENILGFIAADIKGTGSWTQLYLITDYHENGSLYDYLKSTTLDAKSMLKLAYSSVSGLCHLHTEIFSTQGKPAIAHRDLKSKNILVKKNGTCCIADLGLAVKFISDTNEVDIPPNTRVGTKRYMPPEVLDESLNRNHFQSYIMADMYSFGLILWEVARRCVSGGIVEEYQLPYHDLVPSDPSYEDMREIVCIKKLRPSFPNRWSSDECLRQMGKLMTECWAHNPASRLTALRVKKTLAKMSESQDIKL
Attribute measured: IC50 (µM)
# unit: µM | format: bare number

Request: Which IC50 value belongs to CN1C(=O)[C@@H](N2CCc3c(nn(Cc4ccccc4)c3Br)C2=O)COc2ccccc21 [TP-030-2] ?
Response: 1
